Tested on: PC-3
Assay: Anticancer activity against human PC-3 cells assessed as cell growth inhibition incubated for 72 hrs by SRB assay
Type: functional, cell-based
Details: Homo sapiens, PC-3, 72 h
endpoint.label: pIC50
One number for each entry, as −log10 of the molar value.

CO[C@H]1/C=C\C=C(/C)C(=O)NC2=CC(=O)C(NCc3cn([C@@H]4O[C@H](CO)[C@@H](O[C@@H]5O[C@H](CO)[C@H](O)[C@H](O)[C@H]5O)[C@H](O)[C@H]4O)nn3)=C(C[C@@H](C)C[C@H](OC)[C@H](O)[C@@H](C)/C=C(\C)[C@@H]1OC(N)=O)C2=O
5.55
CO[C@H]1/C=C\C=C(/C)C(=O)NC2=CC(=O)C(NCc3cn(Cc4cccc(C#N)c4)nn3)=C(C[C@@H](C)C[C@H](OC)[C@H](O)[C@@H](C)/C=C(\C)[C@@H]1OC(N)=O)C2=O
5.35
CO[C@H]1/C=C\C=C(/C)C(=O)NC2=CC(=O)C(NCc3cn(Cc4ccccc4)nn3)=C(C[C@@H](C)C[C@H](OC)[C@H](O)[C@@H](C)/C=C(\C)[C@@H]1OC(N)=O)C2=O
6.28
CO[C@H]1/C=C\C=C(/C)C(=O)NC2=CC(=O)C(NCc3cn(CC=C(C)C)nn3)=C(C[C@@H](C)C[C@H](OC)[C@H](O)[C@@H](C)/C=C(\C)[C@@H]1OC(N)=O)C2=O
5.56
CO[C@H]1/C=C\C=C(/C)C(=O)NC2=CC(=O)C(NCc3cn(Cc4ccc(C(F)(F)F)cc4)nn3)=C(C[C@@H](C)C[C@H](OC)[C@H](O)[C@@H](C)/C=C(\C)[C@@H]1OC(N)=O)C2=O
6.10
CO[C@H]1/C=C\C=C(/C)C(=O)NC2=CC(=O)C(NCc3cn(CC4CCCCC4)nn3)=C(C[C@@H](C)C[C@H](OC)[C@H](O)[C@@H](C)/C=C(\C)[C@@H]1OC(N)=O)C2=O
5.86

Hi! Can you tell me pIC50 for each of these compounds?
1. CO[C@H]1/C=C\C=C(/C)C(=O)NC2=CC(=O)C(NCc3cn([C@]4(C#N)O[C@H](COC(C)=O)[C@H](OC(C)=O)[C@H](OC(C)=O)[C@H]4OC(C)=O)nn3)=C(C[C@@H](C)C[C@H](OC)[C@H](O)[C@@H](C)/C=C(\C)[C@@H]1OC(N)=O)C2=O
2. CO[C@H]1/C=C\C=C(/C)C(=O)NC2=CC(=O)C(NCc3cn([C@@H]4O[C@H](CO)[C@@H](O)[C@H](O)[C@H]4NC(C)=O)nn3)=C(C[C@@H](C)C[C@H](OC)[C@H](O)[C@@H](C)/C=C(\C)[C@@H]1OC(N)=O)C2=O
3. CO[C@H]1/C=C\C=C(/C)C(=O)NC2=CC(=O)C(NCc3cn(CCCOS(=O)(=O)c4ccc(C)cc4)nn3)=C(C[C@@H](C)C[C@H](OC)[C@H](O)[C@@H](C)/C=C(\C)[C@@H]1OC(N)=O)C2=O

Ans:
[6.12, 5.74, 6.34]

Hi! Can you tell me pIC50 for each of these compounds?
1. CO[C@H]1/C=C\C=C(/C)C(=O)NC2=CC(=O)C(NCc3cn([C@@H]4O[C@H](CO)[C@@H](O)[C@H](O)[C@H]4O)nn3)=C(C[C@@H](C)C[C@H](OC)[C@H](O)[C@@H](C)/C=C(\C)[C@@H]1OC(N)=O)C2=O
2. CO[C@H]1/C=C\C=C(/C)C(=O)NC2=CC(=O)C(NCc3cn(Cc4ccc(Cl)cc4)nn3)=C(C[C@@H](C)C[C@H](OC)[C@H](O)[C@@H](C)/C=C(\C)[C@@H]1OC(N)=O)C2=O
3. CO[C@H]1/C=C\C=C(/C)C(=O)NC2=CC(=O)C(NCCn3cc(CC(=O)O)nn3)=C(C[C@@H](C)C[C@H](OC)[C@H](O)[C@@H](C)/C=C(\C)[C@@H]1OC(N)=O)C2=O
4. CO[C@H]1/C=C\C=C(/C)C(=O)NC2=CC(=O)C(NCc3cn(CC4CCOCC4)nn3)=C(C[C@@H](C)C[C@H](OC)[C@H](O)[C@@H](C)/C=C(\C)[C@@H]1OC(N)=O)C2=O

Ans:
6.22
6.64
5.67
6.01
